experiment: CCTE_Shafer_MEA_dev_correlation_coefficient_mean: CCTE's Neural Network Formation Assay for Mean Correlation Coefficient, Shafer Lab (AID 2284093)
Activity calls are given as the source filed them. The calls were made as follows: active = hit-call score of the fitted dose curve at least 0.9, where 1 is the maximum; inactive = score below 0.9.
Tick one outcome: active, inactive

See these solved cases before continuing.
C[n+]1ccc(-c2ccccc2)cc1    active
CCOP(=O)(O)OCC (tested in a mixture with another compound)    inactive

From here, focus on the item given below.
In this assay, the call recorded for C=CCN1CC[C@]23c4c5ccc(O)c4O[C@H]2C(=O)CC[C@@]3(O)[C@H]1C5 was what?
inactive

----------
Experiment: UKN5_HCS_SBAD2_neurite_outgrowth: University of Konstanz (UKN) Leist Lab Neurite Outgrowth Assay in human iPSC-derived immature Dorsal Root Ganglia Neurons (UKN5) (AID 2284070)
Settings: actives raise or lower the signal
Description: UKN5_HCS_SBAD2 is a cell-based, multiplexed-readout assay screening for neurite outgrowth and cell viability that uses SBAD2 (peripheral neurons differentiated from iPSC), a human peripheral nervous system cell line, with measurements taken at […] after chemical dosing in a microplate: 96-well plate. […] Following 24 hr chemical exposures in multi-well plates, neurite area is evaluated as a marker of neurite outgrowth using high-content imaging of cells stained with calcein-AM. […]
Active and inactive are the calls of the source. The calls were made as follows: active = hit-call score of the fitted dose curve at least 0.9, where 1 is the maximum; inactive = score below 0.9.
Tick one outcome: yes (1) = active, no (0) = inactive

In this assay, the call recorded for CC(=O)Oc1ccc2c3c1O[C@H]1[C@@H](OC(C)=O)C=C[C@H]4[C@@H](C2)N(C)CC[C@@]341 was what?
no (0)

In this assay, the call recorded for [CH3][Sn]([CH3])([CH3])[Cl] was what?
yes (1)

In this assay, the call recorded for C/C(=C/C=C/[C@@H](C)C(=O)O)[C@H]1CN[C@H](C(=O)O)[C@H]1CC(=O)O was what?
no (0)

In this assay, the call recorded for CP(=O)(O)CCC(N)C(=O)O (stereo not drawn) was what?
no (0)

In this assay, the call recorded for [Cd+2].[Cl-].[Cl-] was what?
yes (1)

----------
test: CCTE_Shafer_MEA_acute_per_network_burst_spike_number_mean: CCTE's Neural Acute Assay for Average Number of Spikes in a Network Burst, Shafer Lab (AID 2284019)
Calls of active or inactive are those of the source. How the source made its calls: active means hit-call score of the fitted dose curve at least 0.9, where 1 is the maximum; inactive means score below 0.9.
Tick one outcome: Y for active, N for inactive

CP(=O)(O)CCC(N)C(=O)O (configuration not stated)    N
Cc1ccc(OP(=O)(Oc2ccc(C)cc2)Oc2ccc(C)cc2)cc1 (tested in a mixture with another compound)    Y
C#CCN(C)[C@H](C)Cc1ccccc1    N

In this assay, the call recorded for [Cd+2].[Cl-].[Cl-] was what?
N

In this assay, the call recorded for CC1(C)[C@H](C=C(Cl)Cl)[C@@H]1C(=O)O[C@@H](C#N)c1cccc(Oc2ccccc2)c1 was what?
N

In this assay, the call recorded for CC1(C)[C@H](C(=O)O[C@H](C#N)c2cccc(Oc3ccccc3)c2)[C@@H]1C=C(Br)Br was what?
Y

In this assay, the call recorded for COc1ccc(CO)cc1 was what?
Y

----------
experiment: CCTE_Harrill_HTTr_CellCount_MCF7: CCTE's Cell Proliferation Assessment for the High-Throughput Transcriptomics (HTTr) Platform, Harrill Lab (AID 2284012);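 also: count of Hoechst-stained nuclei per well by high-content imaging in MCF-7 cells; cells exposed to compound for six hours; intended direction is loss of nuclei count meaning fewer cells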
Records with an inconclusive call do not appear. Activity calls are given as the source filed them. The calls were made as follows: active = hit-call score of the fitted dose curve at least 0.9, where 1 is the maximum; inconclusive = response in the unintended direction; inactive = score below 0.9.
property: outcome

A selection of reference data follows.
O=c1[nH]c(Cl)c(Cl)cc1Cl    inactive
ClC=C(Cl)CCl    inactive
CN1C(=O)CCS(=O)(=O)C1c1ccc(Cl)cc1 (centres undefined)    inactive
O=C1CCO1    inactive
CC(C)CCCCCCCOC(=O)c1ccccc1C(=O)OCCCCCCCC(C)C    inactive

outcome reading for CC(C)(C)OOC(C)(C)C#CC(C)(C)OOC(C)(C)C : inactive

outcome reading for Cc1ccc(N(SC(F)(Cl)Cl)S(=O)(=O)N(C)C)cc1 : inactive

outcome reading for CCC[N+](=O)[O-] : inactive

outcome reading for Cc1ccc(OP(=O)(Oc2ccc(C)cc2)Oc2ccc(C)cc2)cc1 (tested in a mixture with another compound) : inactive

outcome reading for COc1ccc(CO)cc1 : inactive

outcome reading for O=C=Nc1ccccc1 : inactive

outcome reading for Cc1cc(N)ccc1N : inactive

outcome reading for Clc1ccc(-c2ccccc2)cc1 : inactive

outcome reading for O=C(O)CCCc1ccc(N(CCCl)CCCl)cc1 : inactive

outcome reading for Cl/C=C\CCl : inactive

outcome reading for CC(C)(Cl)Cl : inactive

outcome reading for CC(Oc1ccc(Oc2ncc(C(F)(F)F)cc2Cl)cc1)C(=O)O (centres undefined) : inactive

----------
experiment: BSK_CASM3C_SRB: Viability Assessment in the BioMAP Diversity Plus: CASM3C Assay (AID 2283050); conditions: primary human coronary artery smooth muscle cells;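 also: total protein by SRB staining as cytotoxicity measure in parallel cultures; cells exposed to compound for 24 h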
Active and inactive are the calls of the source. How the source made its calls: active means hit-call score of the fitted dose curve at least 0.9, where 1 is the maximum; inactive means score below 0.9.
property: AC50

A selection of reference data follows.
CC(=O)/C=C/c1ccccc1    inactive
CC(C)(C)C(=O)CCl    inactive
CC(C)COP(=O)(OCC(C)C)OCC(C)C    inactive
CC(C)CCCCCCCOC(=O)c1ccccc1C(=O)OCCCCCCCC(C)C    inactive
c1ccc(Nc2ccc3ccccc3c2)cc1    inactive

AC50 reading for O=C(CCl)c1ccccc1 : 12.2 µM (active)

----------
Molecular target: THRB (gene 7068) (UniProt P10828)
Sequence (P10828 whole entry, looked up): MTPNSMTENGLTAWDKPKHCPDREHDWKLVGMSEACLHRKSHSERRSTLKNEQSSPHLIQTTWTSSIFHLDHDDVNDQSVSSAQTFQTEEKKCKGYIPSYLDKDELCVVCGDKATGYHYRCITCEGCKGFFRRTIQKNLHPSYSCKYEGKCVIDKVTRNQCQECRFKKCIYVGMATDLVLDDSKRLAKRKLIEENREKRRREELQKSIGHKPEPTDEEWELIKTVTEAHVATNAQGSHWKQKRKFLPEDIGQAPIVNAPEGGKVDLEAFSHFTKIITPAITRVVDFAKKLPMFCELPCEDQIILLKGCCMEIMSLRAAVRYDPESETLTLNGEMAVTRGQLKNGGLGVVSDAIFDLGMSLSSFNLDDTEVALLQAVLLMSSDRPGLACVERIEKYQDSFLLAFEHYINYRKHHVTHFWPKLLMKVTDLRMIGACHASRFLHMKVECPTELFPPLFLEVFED
Experiment: TOX21_TRB_BLA_Antagonist_Followup_ratio: Tox21 Thyroid Hormone Receptor beta Antagonism Beta-lactamase (BLA) Follow-Up Assay, Ratio (AID 2283958)
Text: The GeneBLAzer TRb-UAS-bla HEK293T assay kit for human TRb (ThermoFisherScientific Catalog No. K1684) was used as a secondary assay for specificity (TRb-bla).This assay contained the ligand-binding domain (LBD) of the human TRb fused to the DNA-binding domain of GAL4 stably integrated in the GeneBLAzer UAS-bla HEK293Tcell line. The reporter gene, b-lactamase, is under the transcriptional control of a UAS that binds the GAL4 DNA-binding domain. […]
Inconclusive results are not listed. Activity calls are given as the source filed them. How the source made its calls: active means hit-call score of the fitted dose curve at least 0.9, where 1 is the maximum; inconclusive means response in the unintended direction; inactive means score below 0.9.
Tick one outcome: Y (active), N (inactive)

See these solved cases before continuing.
CN1C(=O)[C@@H](NC(=O)c2cc3ccccc3[nH]2)N=C(c2ccccc2)c2ccccc21    Y
CC(=O)[C@H]1CC[C@H]2[C@@H]3CC[C@@H]4C[C@H](O)CC[C@]4(C)[C@H]3CC[C@]12C    N
COC1=CC(=O)O[C@@H](/C=C/c2ccc3c(c2)OCO3)C1    N

In this assay, the call recorded for CC[C@H]1C[C@H]2[C@@H]3CCC4=CC(=O)CC[C@@H]4[C@H]3CC[C@]2(C)[C@H]1O was what?
N

In this assay, the call recorded for O=C1OC2(c3cc(Br)c(O)cc3Oc3c2cc(Br)c(O)[c]3[Hg])c2ccccc21 (stereo unspecified) was what?
N

In this assay, the call recorded for COc1cc([C@@H]2c3cc4c(cc3[C@@H](O)[C@H]3COC(=O)[C@H]23)OCO4)cc(OC)c1O was what?
Y

----------
test: TOX21_p53_BLA_p5_viability: Viability Assessment in the Tox21 HCT-116 p53 Agonism Beta-lactamase Assay, Phase 5 (AID 2283600)
Results filed as inconclusive are left out. Activity calls are given as the source filed them. How the source made its calls: active means hit-call score of the fitted dose curve at least 0.9, where 1 is the maximum; inconclusive means response in the unintended direction; inactive means score below 0.9.
Tick one outcome: t (active), f (inactive)

See these solved cases before continuing.
CC(C)N(C(=O)SCC(Cl)=CCl)C(C)C    f
Cc1ccccc1    f

In this assay, the call recorded for COc1c(C(C)(C)C)cc([N+](=O)[O-])c(C)c1[N+](=O)[O-] was what?
f

In this assay, the call recorded for OCC(Cl)CCl (centres undefined) was what?
f

----------
biological target: Cellular tumor antigen p53 (Homo sapiens) (UniProt P04637); test: TOX21_p53_BLA_p4_ratio: Tox21 HCT-116 p53 Agonism Beta-lactamase Assay, Ratio, Phase 4 (AID 2283601)
Sequence (P04637 whole entry, looked up): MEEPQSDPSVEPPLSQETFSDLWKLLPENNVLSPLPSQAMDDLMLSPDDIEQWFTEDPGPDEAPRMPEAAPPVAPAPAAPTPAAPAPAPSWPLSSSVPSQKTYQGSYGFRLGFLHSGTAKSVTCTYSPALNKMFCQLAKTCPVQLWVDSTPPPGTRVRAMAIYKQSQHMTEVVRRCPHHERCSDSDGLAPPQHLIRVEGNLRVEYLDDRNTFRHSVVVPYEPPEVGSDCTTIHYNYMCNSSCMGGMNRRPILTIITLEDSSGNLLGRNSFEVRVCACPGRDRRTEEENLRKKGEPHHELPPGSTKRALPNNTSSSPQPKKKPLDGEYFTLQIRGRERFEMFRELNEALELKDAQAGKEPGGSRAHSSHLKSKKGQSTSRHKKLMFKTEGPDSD
Results filed as inconclusive are left out. Calls of active or inactive are those of the source. The calls were made as follows: active = hit-call score of the fitted dose curve at least 0.9, where 1 is the maximum; inconclusive = response in the unintended direction; inactive = score below 0.9.
Tick one outcome: YES = active, NO = inactive

See these solved cases before continuing.
O=[N+]([O-])c1ccc2ccc3cccc4ccc1c2c34    NO
CCCC(Cn1cncn1)c1ccc(Cl)cc1Cl (stereo not drawn)    YES
COc1ccc(OC)c([C@@H](O)[C@H](C)N)c1    NO
O=c1c2ccccc2c(=O)c2c1cc(Cl)c1[nH]c3c([nH]c12)c(Cl)cc1c(=O)c2ccccc2c(=O)c13    NO
CN1[C@@H]2CC[C@H]1CC(OC(=O)c1cc(Cl)cc(Cl)c1)C2 (stereo partly drawn)    NO

In this assay, the call recorded for CCN was what?
NO

In this assay, the call recorded for BrCC(Br)(Br)Br was what?
NO

----------
assay: CCTE_Mundy_HCI_Cortical_Synap_Neur_Matur_CellBodySpotCount: CCTE's Synaptogenesis and Neurite Maturation Assay in rat cortical cells for Cell Body Spot Count, Mundy Lab (AID 2284223)
The source made the active and inactive calls. Rule for the calls: active = hit-call score of the fitted dose curve at least 0.9, where 1 is the maximum; inactive = score below 0.9.
Tick one outcome: true (1) = active, false (0) = inactive

O=[As]O    true (1)
CC1(C)[C@H](C=C(Cl)Cl)[C@H]1C(=O)OCc1c(F)c(F)cc(F)c1F    true (1)
[Cd+2].[Cl-].[Cl-]    true (1)

From here, focus on the item given below.
In this assay, the call recorded for CN[C@]1(c2ccccc2Cl)CCCCC1=O was what?
false (0)
